# experimental.protocol: soluble fraction after stress (log2 fold change); higher = more stays soluble; pooled small domains, quantitative proteomics;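 note: 20 min heating vs room temperature control held 20 min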
# cond: stress: 75 degC
measured.metric: soluble fraction (log2)
Response field accepts a number only; no unit should be typed.

The examples below pair each entry with its known result.
biopolymer.sequence | soluble fraction (log2)
HMIKRDLAFSEFIAEVKAGQVREVTIKGNSISGNLNDGREFNTYAPNDPNLVKTLTDQGVLIRAIPLE | 0.0691
HMAGATDTVRNLLERQIREGELLPGQRLPTEPELAARLGVSRNSLREALQSLEDSGLIVKRHGIGTFVTE | 0.0985
HMQPVLSDAEVNDLKNIAGGERGYNQLMDWAGNNLTAQDAKSYDDVLATGNKAAISFAIKALMGQYEDAN | -0.0478
HMNSSLFLARQVHALRKKAGLTLQQLSRKSDVSVSTLSKIEKGQLSPTYEKIVSLARGLDVPIAALFHE | -2.45
HMFEERKKDWNLTGLLDDVIRRYIHQLTNDELNEINLEKSSGMPDEEIKNGIKLPLAVMQQRRETWGS | -0.252
HMGANAVAAFTARVRTGPSTGYPVRISVPQGRQVRVISGPYGGWYRVSYQGLTGYTYGGLLRQG | -0.673
HMSGEMGIIVAKRLPIRSEPDELATRAFVLKAGTRVKIVKHLNGWLEIVHDGKAGYVQDLEVYVRVIG | -0.806
HMTARYQQVEDYIVRRIQDGSWPPGHRLPSEHELVQQFGMSRMTVNRALRDLMQKGRIVRVAGVGSFVAQD | -1.98
HMNNFTQSALDTIDGIGKRRKKLLLNHFGSVKLIENASIEDIKKIDGISDLVANKIYNFFNKN | -1.04
HMKTTKLEELDMQKEFILKNGKYGFGVYIGGKYIGLTDIGTVNSFKDSLQLPVVSLSDIDFKTFAEKF | -1.27

# soluble fraction (log2) lookup, item HMVSSAEQQARDKESGMILVQEAGGPDKARALVEKMRQDIRNPALDGTRRQMLRGHVARIELALAELETG -0.0254

Could you do the same for HMARVSGIDLPKNKRGYIGLTYIYGIGRSTALHILNSAGVDPEKKVHEWNDDETTAIRNIINAEIKVEGAL , please? -0.631

Origin of measurements: the domain aggregation screens of Martell et al. (2025)
